# System: HS 578T breast
# run_description: NCI tumour cell line growth inhibition, 48 h
endpoint: TGI (µM)
Form entry: value (µM) — number only.

compound | subject_of_test | result_units | assay_value
COc1ccc(N=Nc2c(O)ccc3ccccc23)cc1 | HS 578T breast | µM | 23.2
C=CS(=O)(=O)c1c2cc(OC)ccc2nc2ccc(OC)cc12 | HS 578T breast | µM | 11.9
COc1cc(/C=C/c2ccc(/C=C/c3cc(OC)c(OC)c(OC)c3)cc2)cc(OC)c1OC | HS 578T breast | µM | 75.5
COc1ccc2nccc(NCCCN3CCN(CCCNc4ccnc5ccc(OC)cc45)CC3)c2c1 | HS 578T breast | µM | 3.27
CCCCCc1cc2cc3c(c(O)c2c(=O)[nH]1)C1(CC3)C(O)=c2c(=O)c3c(=O)cc(OC)c(=O)c=3c(=O)c2=C1O (stereo not given) | HS 578T breast | µM | 15.3

For the next question, use this compound.
Please give the measured TGI for this compound: "NCCCCCCn1c2c(c3ccccc3c1=O)C(=O)c1ccccc1-2"
11.1

----------
# Tested on: NCI-H23 lung
# run_description: NCI tumour cell line growth inhibition, 48 h
TGI values for the molecules below.
Value expressed in µM; do not type the unit.

The following molecules have reported results that may help.
compound_smiles | TGI / µM
CCN(CC)CCNc1ccc2ncn3c4ccccc4c(=O)c1c23 | 19.8
COc1ccc2c(-c3ccc(OCCN(C)C)cc3)c(Oc3ccccc3)c(=O)oc2c1 | 28.8

Would you kindly look at the next entry?
I am curious: what TGI value has been reported for "O=c1c2c([nH]c3cc4c(cc13)OCO4)-c1ccccc1C2" ?
67.5

----------
The following molecules are listed with their measured TGI values.
# Tested on: NCI-H522 lung
# run_description: NCI tumour cell line growth inhibition, 48 h
Where a SMILES comes first, the peptide text is derived from it. The star is where a group is joined. Boc = CC(C)(C)OC(=O)*

Solved entries:
molecule | TGI
N#CC(/C(=N/N=C(N)N)C(=O)Nc1ccccc1[N+](=O)[O-])c1nc(-c2ccc([N+](=O)[O-])cc2)cs1 (stereo not given) | > 100 µM
COC(=O)c1nn(-c2ccccc2)c(=O)cc1N=[N+]=[N-] | > 100 µM
COP1(=O)OCc2cnccc2O1 (stereo not given) | > 100 µM
N#CC(C#N)N=Nc1ccc(-c2nc3ccccc3[nH]2)cc1 | 22.9 µM

Switching to the query record.
API: value(readout=TGI, system=NCI-H522 lung) for record CC(NC(=O)OC(C)(C)C)C(=O)NC(Cc1ccccc1)C(=O)NCC(=O)O (stereo not drawn) (Boc-Ala-Phe-Gly-OH; configuration not given here)
> 100 µM

----------
# TGI listing for each entry below
# System: SNB-19 CNS
# run_description: NCI tumour cell line growth inhibition, 48 h

Sample records with TGI:
compound | subject_of_test | TGI
C=CCCCC(C#N)(c1ccccc1)N1CCCC1 (stereo not given) | SNB-19 CNS | > 100 µM
Cc1cnc(Cl)nc1C(C#N)c1nc2ccccc2s1 (stereo not given) | SNB-19 CNS | > 100 µM
CN(C)C(=O)Nc1c([N+](=O)[O-])cc(C(F)(F)F)cc1[N+](=O)[O-] | SNB-19 CNS | > 100 µM
CCCCN(C(=O)c1ccccc1)C1CCC(=O)c2[nH]c3ccccc3c21 (stereo not given) | SNB-19 CNS | > 100 µM

Would you kindly look at the next entry?
Field request: TGI | item: "O=C(/C=C/c1c(O)ccc2ccccc12)c1ccccc1Cl"
> 100 µM
